Tested on: A549
Test: Antiproliferative activity against human A549 cells harboring KRAS G12S point mutant assessed as cell growth inhibition after 72 hrs by Celltiter-Glo luminescent cell viability assay
Type: functional, cell-based
Settings: A549, 72 h
Task for the reader: assign each of the following compounds its reported IC50.
One number for each entry, in µM.

| Molecular String | Target Of Assay | IC50 (µM) |
| --- | --- | --- |
| C=CC(=O)N1CCN(c2nc(=O)n(-c3ccccc3C(C)C)c3nc(-c4ccccc4Cl)c(Cl)cc23)[C@@H](C)C1 | A549 | 7.1 |

Now look at this one.
q: Test system A549; read-out IC50; what value for `C=CC(=O)N1CCN(c2nc(=O)n(-c3ccccc3C(C)C)c3cc(-c4c(C)ccc5[nH]ncc45)c(Cl)cc23)CC1` ?
a: 1.7
